tested on: Neurospora sitophila; assay: Antimicrobial activity against Chrysonilia sitophila by broth microdilution method; format: functional
measured_metric: MIC50 (µg/mL)
One number for each entry, in µg/mL.

Tested system Neurospora sitophila; MIC50 recorded for CC[C@@H]([C@H](C)O)n1ncn(-c2ccc(N3CCN(c4ccc(OC[C@@H]5CO[C@@](Cn6cncn6)(c6ccc(F)cc6F)C5)cc4)CC3)cc2)c1=O was 4

Continuing:
Tested system Neurospora sitophila; MIC50 recorded for C[C@@H](c1ncncc1F)[C@](O)(Cn1cncn1)c1ccc(F)cc1F was 4

###

system: Coprinellus domesticus; experiment: Antimicrobial activity against Hormographiella verticillata by broth microdilution method; type: functional
*1 amine or outer side, *2 acyl side, *3 side chain or, on linkers, in order; H or OH if unused. Where a SMILES comes first, the peptide text is derived from it. Bridges are numbered along the chain shown (N, C = ends). [ ]: non-standard residue; d: D form. The star is where a group is joined. hTyr(3S-OH,4S-OH,3'-OSO3H) = N[C@H](C(=O)O)[C@H](O)[C@@H](O)c1ccc(O)c(OS(=O)(=O)O)c1; Orn(4R-OH,5R-OH) = O=C([C@H](C[C@@H](O)[C@@H](O)N[*:3])N[*:1])[*:2]; Pro(3S-OH,4S-Me) = C[C@H]1CN[C@H](C(=O)O)[C@H]1O; X1 = CCCCCOc1ccc(-c2cc(-c3ccc(C(=O)*)cc3)no2)cc1; Gln(3R-OH) = NC(=O)C[C@@H](O)[C@H](N)C(=O)O; Hyp = O=C(O)[C@@H]1C[C@@H](O)CN1
Hi there, I'd appreciate the recorded MIC50 for every entry that follows.

Provide MIC50 for all items below, preserving their order.
1. C[C@@H]1[C@H](O)[C@@H](C)/C=C/C=C/C=C/C=C/C=C/C=C/C=C/[C@H](O[C@@H]2O[C@H](C)[C@@H](O)[C@H](N)[C@@H]2O)C[C@@H]2O[C@](O)(C[C@@H](O)C[C@@H](O)[C@H](O)CC[C@@H](O)C[C@@H](O)CC(=O)O[C@H]1C)C[C@H](O)[C@H]2C(=O)O
2. CCCCCOc1ccc(-c2cc(-c3ccc(C(=O)N[C@H]4C[C@@H](O)[C@@H](O)NC(=O)[C@@H]5[C@@H](O)[C@@H](C)CN5C(=O)[C@H]([C@H](O)CC(N)=O)NC(=O)[C@H]([C@H](O)[C@@H](O)c5ccc(O)c(OS(=O)(=O)O)c5)NC(=O)[C@@H]5C[C@@H](O)CN5C(=O)[C@H]([C@@H](C)O)NC4=O)cc3)no2)cc1 [MICAFUNGIN] (X1-[Orn(4R-OH,5R-OH)]T[Hyp][hTyr(3S-OH,4S-OH,3'-OSO3H)][Gln(3R-OH)][Pro(3S-OH,4S-Me)]; lactam 1-C)
3. CCC(C)n1ncn(-c2ccc(N3CCN(c4ccc(OCC5COC(Cn6cncn6)(c6ccc(Cl)cc6Cl)O5)cc4)CC3)cc2)c1=O (stereo not drawn)

a:
1: 0.5 µg/mL; 2: > 16 µg/mL; 3: > 8 µg/mL

###

system: Pichia kudriavzevii; assay: Antimicrobial activity against Candida krusei by broth microdilution method; format: functional
*1 amine or outer side, *2 acyl side, *3 side chain or, on linkers, in order; H or OH if unused. Where a SMILES comes first, the peptide text is derived from it. Bridges are numbered along the chain shown (N, C = ends). [ ]: non-standard residue; d: D form. The star is where a group is joined. pTerphenylCO(4''-OnC5H11) = CCCCCOc1ccc(-c2ccc(-c3ccc(C(=O)*)cc3)cc2)cc1; Orn(4R-OH,5R-OH) = O=C([C@H](C[C@@H](O)[C@@H](O)N[*:3])N[*:1])[*:2]; hTyr(3S-OH,4S-OH) = N[C@H](C(=O)O)[C@H](O)[C@@H](O)c1ccc(O)cc1; Pro(3S-OH,4S-Me) = C[C@H]1CN[C@H](C(=O)O)[C@H]1O; Hyp = O=C(O)[C@@H]1C[C@@H](O)CN1
Mark Yes for MIC50 under 0.2 µg/mL, No if at or over.

q: Dear colleague, could you confirm whether MIC50 of OC(Cn1cncn1)(Cn1cncn1)c1ccc(F)cc1F [FLUCONAZOLE] falls below 0.2 µg/mL? Thanks.
a: No

q: Dear colleague, could you confirm whether MIC50 of CCCCCOc1ccc(-c2ccc(-c3ccc(C(=O)N[C@H]4C[C@@H](O)[C@@H](O)NC(=O)[C@@H]5[C@@H](O)[C@@H](C)CN5C(=O)[C@H]([C@@H](C)O)NC(=O)[C@H]([C@H](O)[C@@H](O)c5ccc(O)cc5)NC(=O)[C@@H]5C[C@@H](O)CN5C(=O)[C@H]([C@@H](C)O)NC4=O)cc3)cc2)cc1 [ANIDULAFUNGIN] ({pTerphenylCO(4''-OnC5H11)}-[Orn(4R-OH,5R-OH)]T[Hyp][hTyr(3S-OH,4S-OH)]T[Pro(3S-OH,4S-Me)]; lactam 1-C) falls below 0.2 µg/mL? Thanks.
a: Yes

q: Dear colleague, could you confirm whether MIC50 of CC[C@@H]([C@H](C)O)n1ncn(-c2ccc(N3CCN(c4ccc(OC[C@@H]5CO[C@@](Cn6cncn6)(c6ccc(F)cc6F)C5)cc4)CC3)cc2)c1=O [POSACONAZOLE] falls below 0.2 µg/mL? Thanks.
a: Yes
